Experimental Protocol: Absorption and fluorescence spectra, extinction coefficient, fluorescence quantum yield
Assay type: physicochemical
Details: Table 10, BuOH
Observable: Observed absorption λmax (nm)

In [3]: df
Out[3]:
                                   molecule                observable  reading
0  C[n+]1ccc(/C=C/C2=C([O-])c3ccccc3S2(=O)=O)cc1  Observed absorption λmax      519
1  CN1/C(=C/C=C/C=C2/C(=O)c3ccccc3S2(=O)=O)C(C)(C)c2ccccc21 [I-SO, reference compound]  Observed absorption λmax      587
2  Cn1c([O-])c(/C=C/C=C/c2cc[n+]3c(c2)C(C)(C)c2ccccc2-3)c(=O)n(C)c1=O  Observed absorption λmax      615
3  C[n+]1ccc(/C=C/C=C/C2=C([O-])c3ccccc3S2(=O)=O)cc1  Observed absorption λmax      593
4  CCn1c([O-])c(/C=C/C=C/c2cc[n+]3c(c2)C(C)(C)c2ccccc2-3)c(=O)n(CC)c1=S  Observed absorption λmax      619
5  CCN1C(=O)\C(=C/C=C/C=C2/N(C)c3ccccc3C2(C)C)C(O)N(CC)C1=S (centres unmarked) [I-TBA, reference compound]  Observed absorption λmax      589
6  CC1(C)c2ccccc2-[n+]2ccc(/C=C/C=C/C3=C(O)c4ccccc4S3(=O)=O)cc21  Observed absorption λmax      650
7  CC1(C)c2ccccc2-[n+]2ccc(/C=C/C3=C([O-])c4ccccc4S3(=O)=O)cc21  Observed absorption λmax      554
